meta.source: ChEMBL document CHEMBL1145224

# MIC values compiled below
test system: Pseudomonas aeruginosa; assay: Minimum inhibitory concentration against Pseudomonas aeruginosa 1592E strain; type: functional
The reply must contain the numeric value and, after it, the unit.

* C[C@@H](O)[C@H]1C(=O)N2C(C(=O)O)=C(SCCNC=N)C[C@H]12 [IMIPENEM ANHYDROUS] | 0.781 µg/mL

Can you look up the measured MIC of CC1C(S[C@@H]2CN[C@H](/C=C/c3ccno3)C2)=C(C(=O)O)N2C(=O)[C@H]([C@@H](C)O)[C@@H]12 (single isomer, unassigned) for me?
0.195 µg/mL

Can you look up the measured MIC of `C[C@@H](O)[C@H]1C(=O)N2C(C(=O)O)=C(S[C@@H]3CN[C@H](C(=O)N(C)C)C3)[C@H](C)[C@H]12` for me?
0.195 µg/mL

Can you look up the measured MIC of `C[C@@H](O)[C@H]1C(=O)N2C(C(=O)O)=C(S[C@@H]3CN[C@H](/C=C/c4cc(C(=O)[O-])no4)C3)[C@H](C)[C@H]12.[Na+]` for me?
0.195 µg/mL

Can you look up the measured MIC of `C[C@@H](O)[C@H]1C(=O)N2C(C(=O)O)=C(S[C@@H]3CN[C@H](/C=C/c4cc(C(=O)[O-])on4)C3)[C@H](C)[C@H]12.[Na+]` for me?
0.391 µg/mL

---

# MIC values compiled below
tested on: Salmonella typhimurium; assay: Minimum inhibitory concentration against Salmonella Typhimurium; type: functional, Salmonella enterica subsp. enterica serovar Typhimurium; conditions: Salmonella enterica
A number alone suffices; assume µg/mL.

Some solved cases for reference:
- C[C@@H](O)[C@H]1C(=O)N2C(C(=O)O)=C(S[C@@H]3CN[C@H](/C=C/c4cc(C(=O)[O-])on4)C3)[C@H](C)[C@H]12.[Na+]: 0.049
- C[C@@H](O)[C@H]1C(=O)N2C(C(=O)O)=C(SCCNC=N)C[C@H]12 [IMIPENEM ANHYDROUS]: 0.781
- C[C@@H](O)[C@H]1C(=O)N2C(C(=O)O)=C(S[C@@H]3CN[C@H](C(=O)N(C)C)C3)[C@H](C)[C@H]12: 0.049

Can you look up the measured MIC of CC1C(S[C@@H]2CN[C@H](/C=C/c3ccno3)C2)=C(C(=O)O)N2C(=O)[C@H]([C@@H](C)O)[C@@H]12 (single isomer, unassigned) for me?
0.049

Can you look up the measured MIC of `C[C@@H](O)[C@H]1C(=O)N2C(C(=O)O)=C(S[C@@H]3CN[C@H](/C=C/c4cc(C(=O)[O-])no4)C3)[C@H](C)[C@H]12.[Na+]` for me?
0.049

---

assay: Area under concentration time at a single intravenous administration of 20 mg/kg in rat; assay type: ADME, organism-based; set-up: dose 20 mg/kg, route intravenous; settings: in vivo
# AUC values compiled below
The reply must contain the numeric value and, after it, the unit.

Can you look up the measured AUC of `C[C@@H](O)[C@H]1C(=O)N2C(C(=O)O)=C(S[C@@H]3CN[C@H](C(=O)N(C)C)C3)[C@H](C)[C@H]12` for me?
6380 ng·h/mL

Can you look up the measured AUC of CC1C(S[C@@H]2CN[C@H](/C=C/c3ccno3)C2)=C(C(=O)O)N2C(=O)[C@H]([C@@H](C)O)[C@@H]12 (single isomer, unassigned) for me?
18900 ng·h/mL

Can you look up the measured AUC of `C[C@@H](O)[C@H]1C(=O)N2C(C(=O)O)=C(S[C@@H]3CN[C@H](/C=C/c4cc(C(=O)[O-])no4)C3)[C@H](C)[C@H]12.[Na+]` for me?
25300 ng·h/mL

---

test: Half life at a single intravenous administration of 5 mg/kg in dog; type: ADME, organism-based, Canis lupus familiaris; set-up: dose 5 mg/kg, route intravenous; conditions: in vivo
property.measured: half-life (min)
A number alone suffices; assume min.

* C[C@@H](O)[C@H]1C(=O)N2C(C(=O)O)=C(S[C@@H]3CN[C@H](/C=C/c4cc(C(=O)[O-])no4)C3)[C@H](C)[C@H]12.[Na+] | 41

Now for a further compound.
Can you look up the measured half-life of CC1C(S[C@@H]2CN[C@H](/C=C/c3ccno3)C2)=C(C(=O)O)N2C(=O)[C@H]([C@@H](C)O)[C@@H]12 (single isomer, unassigned) for me?
23

---

test: Half life at a single intravenous administration of 20 mg/kg in rat; format: ADME, organism-based; design: dose 20 mg/kg, route intravenous; settings: in vivo
property.measured: half-life (min)
A number alone suffices; assume min.

* C[C@@H](O)[C@H]1C(=O)N2C(C(=O)O)=C(S[C@@H]3CN[C@H](/C=C/c4cc(C(=O)[O-])no4)C3)[C@H](C)[C@H]12.[Na+] | 12

Now for a further molecule.
Can you look up the measured half-life of CC1C(S[C@@H]2CN[C@H](/C=C/c3ccno3)C2)=C(C(=O)O)N2C(=O)[C@H]([C@@H](C)O)[C@@H]12 (single isomer, unassigned) for me?
16

---

test system: Pseudomonas aeruginosa; experiment: Minimum inhibitory concentration against Pseudomonas aeruginosa 1771M strain; format: functional
property.measured: MIC (µg/mL)
A number alone suffices; assume µg/mL.

Some solved cases for reference:
• C[C@@H](O)[C@H]1C(=O)N2C(C(=O)O)=C(S[C@@H]3CN[C@H](C(=O)N(C)C)C3)[C@H](C)[C@H]12 = 0.049
• C[C@@H](O)[C@H]1C(=O)N2C(C(=O)O)=C(S[C@@H]3CN[C@H](/C=C/c4cc(C(=O)[O-])no4)C3)[C@H](C)[C@H]12.[Na+] = 0.049
• CC1C(S[C@@H]2CN[C@H](/C=C/c3ccno3)C2)=C(C(=O)O)N2C(=O)[C@H]([C@@H](C)O)[C@@H]12 (single isomer, unassigned) = 0.098
• C[C@@H](O)[C@H]1C(=O)N2C(C(=O)O)=C(S[C@@H]3CN[C@H](/C=C/c4cc(C(=O)[O-])on4)C3)[C@H](C)[C@H]12.[Na+] = 1.56

Now for a further compound.
Can you look up the measured MIC of C[C@@H](O)[C@H]1C(=O)N2C(C(=O)O)=C(SCCNC=N)C[C@H]12 [IMIPENEM ANHYDROUS] for me?
0.195

---

# clearance values compiled below
assay: Clearance value at a single intravenous administration of 5 mg/kg in dog; type: ADME, organism-based, Canis lupus familiaris; set-up: dose 5 mg/kg, route intravenous; details: in vivo
A number alone suffices; assume mL/min/kg.

Some solved cases for reference:
• C[C@@H](O)[C@H]1C(=O)N2C(C(=O)O)=C(S[C@@H]3CN[C@H](/C=C/c4cc(C(=O)[O-])no4)C3)[C@H](C)[C@H]12.[Na+] = 6
• C[C@@H](O)[C@H]1C(=O)N2C(C(=O)O)=C(S[C@@H]3CN[C@H](C(=O)N(C)C)C3)[C@H](C)[C@H]12 = 7

Now for a further compound.
Can you look up the measured clearance of CC1C(S[C@@H]2CN[C@H](/C=C/c3ccno3)C2)=C(C(=O)O)N2C(=O)[C@H]([C@@H](C)O)[C@@H]12 (single isomer, unassigned) for me?
27

---

# MIC values compiled below
tested on: Pseudomonas aeruginosa; experiment: Minimum inhibitory concentration against was determined against Pseudomonas aeruginosa 9027 strain; format: functional
A number alone suffices; assume µg/mL.

Some solved cases for reference:
- C[C@@H](O)[C@H]1C(=O)N2C(C(=O)O)=C(S[C@@H]3CN[C@H](C(=O)N(C)C)C3)[C@H](C)[C@H]12: 0.195
- CC1C(S[C@@H]2CN[C@H](/C=C/c3ccno3)C2)=C(C(=O)O)N2C(=O)[C@H]([C@@H](C)O)[C@@H]12 (single isomer, unassigned): 0.195

What MIC appears in the records for this compound with Pseudomonas aeruginosa? C[C@@H](O)[C@H]1C(=O)N2C(C(=O)O)=C(SCCNC=N)C[C@H]12 [IMIPENEM ANHYDROUS]
0.391

What MIC appears in the records for this compound with Pseudomonas aeruginosa? `C[C@@H](O)[C@H]1C(=O)N2C(C(=O)O)=C(S[C@@H]3CN[C@H](/C=C/c4cc(C(=O)[O-])on4)C3)[C@H](C)[C@H]12.[Na+]`
0.195

What MIC appears in the records for this compound with Pseudomonas aeruginosa? `C[C@@H](O)[C@H]1C(=O)N2C(C(=O)O)=C(S[C@@H]3CN[C@H](/C=C/c4cc(C(=O)[O-])no4)C3)[C@H](C)[C@H]12.[Na+]`
0.195

---

assay: Area under concentration time at a single intravenous administration of 5 mg/kg in dog; format: ADME, organism-based, Canis lupus familiaris; parameters: dose 5 mg/kg, route intravenous; conditions: in vivo
# AUC values compiled below
A number alone suffices; assume ng·h/mL.

- C[C@@H](O)[C@H]1C(=O)N2C(C(=O)O)=C(S[C@@H]3CN[C@H](C(=O)N(C)C)C3)[C@H](C)[C@H]12: 11600
- C[C@@H](O)[C@H]1C(=O)N2C(C(=O)O)=C(S[C@@H]3CN[C@H](/C=C/c4cc(C(=O)[O-])no4)C3)[C@H](C)[C@H]12.[Na+]: 14400

Now for a further molecule.
Can you look up the measured AUC of CC1C(S[C@@H]2CN[C@H](/C=C/c3ccno3)C2)=C(C(=O)O)N2C(=O)[C@H]([C@@H](C)O)[C@@H]12 (single isomer, unassigned) for me?
3100
